# test.system: T1, EBOV GP (recombinant, full-length extracellular domain) (EBOV (Ebola Zaire), UniProt Q05320 33-650)
# T1 chain: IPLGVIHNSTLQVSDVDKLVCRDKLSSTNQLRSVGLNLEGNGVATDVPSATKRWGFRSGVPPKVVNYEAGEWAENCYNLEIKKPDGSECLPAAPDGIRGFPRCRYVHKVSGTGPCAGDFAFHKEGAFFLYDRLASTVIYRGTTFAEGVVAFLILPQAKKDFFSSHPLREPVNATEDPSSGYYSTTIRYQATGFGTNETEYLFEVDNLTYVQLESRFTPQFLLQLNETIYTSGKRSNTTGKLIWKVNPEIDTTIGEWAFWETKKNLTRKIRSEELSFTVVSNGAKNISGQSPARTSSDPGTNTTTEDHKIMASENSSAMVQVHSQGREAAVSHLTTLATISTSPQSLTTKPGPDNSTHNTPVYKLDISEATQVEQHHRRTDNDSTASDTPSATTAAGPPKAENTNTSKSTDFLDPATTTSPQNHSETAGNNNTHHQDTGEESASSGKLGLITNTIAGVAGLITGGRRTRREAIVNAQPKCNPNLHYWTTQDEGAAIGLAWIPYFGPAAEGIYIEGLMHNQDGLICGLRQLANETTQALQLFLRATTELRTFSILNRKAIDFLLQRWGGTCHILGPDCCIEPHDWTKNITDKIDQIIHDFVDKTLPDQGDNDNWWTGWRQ
# assay.explanation: ELISA
endpoint.label: EC50 (µg/mL)
Numeric only. Scale: µg/mL

Prompt: Please give the documented EC50 of BDBV324 (antibody, V domains shown) VH: QVQLVQSGAEVKKPGASVKVSCKTSGYTFTSFEIHWVRQGSGQGLEWMGRMNPKSGDTVSAQKFQGRVTLTRDTSINAAYMELGSLSSEDTAVYYCARGPHVGEVVPGLMAGTYYFPLDVWGQGTLVTVSS VL: DIQMTQSPSTLSASIGDRVTITCRASQSISRWLAWYQQKPGKAPKLLIYKVSDLQSGVPSRFSGSGYGTEFTLTIGSLQPDDLATYYCQQYDTYPWTFGQGTKLEIK
Response: 0.131

Prompt: Please report EC50 for the following binder: BDBV270 (antibody, V domains shown) VH: QVQLQESGPGLVKPSQTLSLTCTVSGASISRGLYYWSWIRQPAGKGLEWIGRIYTSGSINYNPSLKSRVTISVDTSKNQFSLRLSSVIATDTAVYYCVRDAPWGDFLTGYFGFYGMDVWGQGTLVTVSS VL: DIVMTQSPSSLSASVGDRVTITCRASQSINTYLNWYQQKPGKAPKFLIYAASSLHSGVPSRFSGSGSGTDFTLTINSLQPDDFATYYCQQSFTTPYTFGQGTKLEIK
Response: 0.173

Prompt: Annotate the binder BDBV223 (antibody, V domains shown) VH: QVQLQQWGAGLLKPSETLSLTCAVYGGSFTTTYWNWIRQPPGKGLEWIGEVNYSGNANYNPSLKGRVAISVDTSKNQFSLRLNSVTAADTAIYYCTSRIRSHIAYSWKGDVWGKGTTVTVSS VL: EIVMTQSPGTLSLSPGERATLSCRASQSVPRNYIGWFQQKPGQAPRLLIYGASSRAAGFPDRFSGSGSGTDFTLTITRLEPEDFAMYYCHQYDRLPYTFGQGTKLEIK with its measured EC50.
Response: 0.024

Prompt: Consider the binder BDBV289 (antibody, V domains shown) VH: QVQLVQSGAEVKKPGSSVKVSCKASGATFGSDTVTWVRQAPGQGLEWMGGIIPFFGEANYAQRFQGRVTITADKSTNTAYMELSSLRSEDTAVYFCARQINEMATFGEIHYYTYMDVWGQGTLVTVSS VL: GSELTQDPAVSVALGQTVRITCQGDSLRNYYASWYQQKPRQAPVLVFYGKNNRPSGIPDRFSGSSSGNTASLTISGAQAEDEADYYCNSRDSSSNHLVFGGGTKLTVLS and give its recorded EC50.
Response: 0.029
